- target.of.assay: rat NMUR2 (Rattus norvegicus, UniProt Q9ESQ4)
- Sequence (Q9ESQ4 whole entry): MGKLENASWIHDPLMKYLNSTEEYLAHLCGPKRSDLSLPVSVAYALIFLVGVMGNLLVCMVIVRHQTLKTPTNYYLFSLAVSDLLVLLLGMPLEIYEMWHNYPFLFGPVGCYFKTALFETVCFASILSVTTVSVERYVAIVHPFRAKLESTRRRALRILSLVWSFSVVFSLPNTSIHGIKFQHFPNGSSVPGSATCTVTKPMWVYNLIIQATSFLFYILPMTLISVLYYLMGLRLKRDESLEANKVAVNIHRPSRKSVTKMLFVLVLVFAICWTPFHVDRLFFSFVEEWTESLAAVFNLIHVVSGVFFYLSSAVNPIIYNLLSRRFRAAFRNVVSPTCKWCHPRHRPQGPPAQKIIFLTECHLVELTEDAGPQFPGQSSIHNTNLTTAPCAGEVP
- assay.method.text: FLIPR calcium mobilization assay, rat NMUR2
- Type: cell-based
- Set-up: expressed in transfected cells; host or cells: FLP-In CHO or HEK-293 FLP-In cells (pcDNA5)
- run.parameters: FLIPR, rat NMUR2

substance	target.of.assay	unit.spec	EC50
Ac-C4FRVDEEFQSPFASQSRGYFLFRPRN-CONH2 ({Ac-C(PEG 20 kDa)}-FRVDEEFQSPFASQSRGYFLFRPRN-NH2) [NMU21, C4 = Cys(PEG)20 kDa]	rat NMUR2 (Rattus norvegicus, UniProt Q9ESQ4)	nM	7
Ac-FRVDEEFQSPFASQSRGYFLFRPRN-NH2 [NMU2]	rat NMUR2 (Rattus norvegicus, UniProt Q9ESQ4)	nM	2.2
Ac-C2FRVDEEFQSPFASQSRGYFLFRPRN-CONH2 [NMU9] ({Ac-C(PEG 40 kDa)}-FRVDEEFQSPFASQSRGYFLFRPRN-NH2) [C2 = Cys(PEG)240 kDa from Nektar (mPEG2-MAL-40 k)]	rat NMUR2 (Rattus norvegicus, UniProt Q9ESQ4)	nM	4.5
